// provenance: the Immune Epitope Database (IEDB)

testTarget: HLA-A*26:01
experimentalDetails: IEDB peptide-MHC binding, purified MHC/competitive/radioactivity; filed as Kd, often an IC50 or EC50 that approximates it; bounds were set here for any values at or beyond the usual limits of such assays
details: source organism: Mammarenavirus guanaritoense
measureName: Kd

What does the record list as Kd for `PSLCRVNNSY` ?
16 µM

###

testTarget: HLA-B*15:17
experimentalDetails: IEDB peptide-MHC binding, purified MHC/direct/fluorescence; filed as Kd, often an IC50 or EC50 that approximates it; bounds were set here for any values at or beyond the usual limits of such assays
details: source organism: Marburg virus - Musoke, Kenya, 1980
pKd: −log10 of the molar value.
Record form. Attribute: pKd. Fill in for each entry.

What does the record list as pKd for `IFDDLQGSL` ?
≤ 4.70

Then `NRWKSWFSY` ?
≤ 4.70
